target: Rac GTPase-activating protein 1 (Homo sapiens); assay: blockers of MgcRacGAP-driven Rac1 GTP hydrolysis – biochemical, ADP Hunter fluorescence, primary and confirmatory, confirmation (AID 624330); conditions: MgcRacGAP-stimulated Rac1 GTP hydrolysis, at 30 µM, stronger effect = higher value, GST-tagged Rac1 F28L mutant substrate;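 also: fluorescence reports GDP produced by GAP-driven GTP hydrolysis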
Hit rate of the full screen: of about 340,000 compounds, about 2,100 (0.62%) were called active. These entries were drawn from the full list. Results with a measured potency or affinity are listed apart.
For each of the compounds below, state its inhibition.
Write down the numeric answer in % and omit the unit.

Query: Dear colleague, I am looking for the recorded inhibition of the following compound: `CCOc1cc(/C=N/NC(=O)c2cccc(S(=O)(=O)N3CCCC3)c2)ccc1OCC(=O)N(C)C`
Result: 5.83

Query: Given the entry `COc1cc2c(cc1NC(=O)c1cccc([N+](=O)[O-])c1)oc1ccccc12` , report its measured inhibition.
Result: 1.77

Query: Need inhibition of `CCOc1ccccc1/C=N/NC(=O)c1cccc(S(=O)(=O)N2CCOCC2)c1` , thanks.
Result: 5.13

Query: Name the recorded inhibition for `O=C(NN=Cc1ccc(F)cc1)c1cccc(S(=O)(=O)N2CCCC2)c1` .
Result: 6.35

Query: I am curious: what inhibition value has been reported for Cc1ccc(S(=O)(=O)NC(C)C(=O)N2CCOCCOCCOCCOCC2)cc1 (stereo not given) ?
Result: 9.08

Query: # get_value(readout='inhibition', item= `O=[N+]([O-])c1cc(C(F)(F)F)ccc1N1CCN(CCO)CC1` )
Result: 4.15

Query: Which inhibition is reported for this compound? O=C(Nc1ccc(F)cc1)C(NC1CCCCC1)c1ccccc1 (stereo not given)
Result: 9.33

Query: inhibition lookup needed for `COc1ccc(CCNC(=O)COC(=O)CCC(=O)c2cccs2)cc1OC` , thanks.
Result: 3.28

Query: Dear colleague, I am looking for the recorded inhibition of the following compound: `Cc1ccc(S(=O)(=O)/N=C(\Nc2cc(C)on2)c2ccc(Cl)cc2)cc1`
Result: 8.35

Query: Please give the measured inhibition for this compound: `O=C(COC(=O)/C=C/c1cccs1)NC(=O)Cc1ccccc1`
Result: 9.86

----------
Assignment: determine reported inhibition for the given compounds.
biological target: Rac GTPase-activating protein 1 (Homo sapiens) (UniProt Q9H0H5); assay: blockers of MgcRacGAP-driven Rac1 GTP hydrolysis – biochemical, ADP Hunter fluorescence, primary and confirmatory, confirmation (AID 624330); conditions: MgcRacGAP-stimulated Rac1 GTP hydrolysis, at 30 µM, stronger effect = higher value, GST-tagged Rac1 F28L mutant substrate;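 also: fluorescence reports GDP produced by GAP-driven GTP hydrolysis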
Sequence (Q9H0H5 whole entry, looked up): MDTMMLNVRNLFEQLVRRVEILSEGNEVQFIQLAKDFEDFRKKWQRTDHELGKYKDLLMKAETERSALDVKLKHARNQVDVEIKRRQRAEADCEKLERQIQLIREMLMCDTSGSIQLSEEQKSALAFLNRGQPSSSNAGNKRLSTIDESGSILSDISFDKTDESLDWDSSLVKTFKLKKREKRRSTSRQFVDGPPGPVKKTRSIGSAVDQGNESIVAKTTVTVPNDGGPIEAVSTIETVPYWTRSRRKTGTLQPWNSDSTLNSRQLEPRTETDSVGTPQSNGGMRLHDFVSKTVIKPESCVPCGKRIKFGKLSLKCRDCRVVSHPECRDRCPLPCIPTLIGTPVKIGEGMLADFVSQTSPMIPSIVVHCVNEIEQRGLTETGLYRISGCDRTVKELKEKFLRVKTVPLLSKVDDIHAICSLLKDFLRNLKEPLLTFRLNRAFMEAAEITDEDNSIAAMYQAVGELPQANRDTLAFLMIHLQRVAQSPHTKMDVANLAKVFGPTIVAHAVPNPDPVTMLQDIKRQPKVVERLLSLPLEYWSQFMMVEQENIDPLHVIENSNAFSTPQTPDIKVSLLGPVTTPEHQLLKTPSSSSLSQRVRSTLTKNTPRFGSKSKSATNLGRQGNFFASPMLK
The campaign covered roughly 340,000 compounds. About 2,100 (0.62%) were called active. Only a sample is shown. Results with a measured potency or affinity are listed apart.
Respond with the bare value in %.

Query: # returns recorded inhibition (system: Rac GTPase-activating protein 1 (Homo sapiens) (UniProt Q9H0H5)) for `O=S(=O)(NC(=NC1CCCCC1)c1ccccc1)c1ccccc1`
Result: 4.1

Query: Tell me reported inhibition for `COC(=O)c1ccc(Sc2ccccc2NS(=O)(=O)c2ccc(OC)cc2)nc1` , tested with Rac GTPase-activating protein 1 (Homo sapiens) (UniProt Q9H0H5).
Result: 7.44

Query: Record `COc1cc(NC(=O)n2ncc3cc(Cl)ccc32)cc(OC)c1` : what is its inhibition with Rac GTPase-activating protein 1 (Homo sapiens) (UniProt Q9H0H5)?
Result: 5.31

Query: Find the measured inhibition: item `CC(C)(C)C(=O)Cn1c(=O)n(-c2ccc(F)cc2F)c(=O)c2sccc21` , target or system Rac GTPase-activating protein 1 (Homo sapiens) (UniProt Q9H0H5).
Result: 13.1

Query: Look up inhibition with Rac GTPase-activating protein 1 (Homo sapiens) (UniProt Q9H0H5) for this compound: `CCN1C(=O)[C@H]2[C@H]3CN=C(SCc4ccc(C(=O)OC)cc4)N3[C@@](Cc3ccccc3)(C(=O)OC)[C@H]2C1=O`
Result: 11.1

Query: Item CCOC(=O)C(C)Sc1nc(-c2ccccc2)nc2ccccc12 (stereo unspecified) with Rac GTPase-activating protein 1 (Homo sapiens) (UniProt Q9H0H5) - inhibition?
Result: -2.03

Query: For the record `COCc1cc(Sc2ccc(Cl)cc2)nc(C)n1` , what value of inhibition is listed for Rac GTPase-activating protein 1 (Homo sapiens) (UniProt Q9H0H5)?
Result: 3.56

Query: Please provide the recorded inhibition for `O=C(O)c1ccc(/C=N/O)cc1` , tested on Rac GTPase-activating protein 1 (Homo sapiens) (UniProt Q9H0H5).
Result: 1.83

Query: Request body: readout inhibition, system Rac GTPase-activating protein 1 (Homo sapiens) (UniProt Q9H0H5), query CNC(=O)CC1C(=O)N(Cc2ccccc2)C(=S)N1NC(=O)c1cccc(F)c1 (stereo unspecified) . Return the value.
Result: -0.78

Query: Give recorded inhibition with Rac GTPase-activating protein 1 (Homo sapiens) (UniProt Q9H0H5) for the following compound: CC1C(=O)C(C)C(c2cc(Cl)ccc2O)NC1c1cc(Cl)ccc1O (stereo unspecified)
Result: 6.05

Query: Return inhibition measured with Rac GTPase-activating protein 1 (Homo sapiens) (UniProt Q9H0H5) given this compound: `O=C(NC(=S)N1CCCCCC1)c1ccccc1`
Result: 2.51

FYI, the data here is from PubChem BioAssay AID624330.
